- target.or.system: Inositol hexakisphosphate kinase 1 (Homo sapiens)
- run.description: Primary qHTS assay for small molecule inhibitors of Inositol hexaphosphate kinase 1 (IP6K1); note: series mostly up to about 58 µM
- condition.notes: ADP-Glo luminescence, 2 h
Among all 140,000 compounds or so, about 1,200 (0.86%) were called active. Cut-off read from the data, not from the text of the source: active = activity change below about -25%; inactive = the rest. For the sample, actives were picked, then their nearest neighbours and some compounds at random.
Return exactly one item of active, inactive

Please review the following examples before continuing.
molecule	classification
COc1ccc(-c2ccc3ncn(Cc4ccccc4)c(=O)c3n2)cc1OC	inactive
CC(C)(Oc1nn(Cc2cccc(Cl)c2)c2ccccc12)C(=O)Nc1cccnc1	inactive
COc1cccc(Nc2n[nH]c(C(O)c3cccc(C(F)(F)F)c3)n2)c1 (configuration not stated)	inactive
CCOC(=O)c1ccc(NC(=O)c2c(NCc3cccc(OC)c3)sc3c2CCC3)cc1	inactive
COC(=O)NC1CCN(Cc2ccc(-c3cc(F)ccc3OC)cc2)C1 (configuration not stated)	inactive
O=C(Nc1ccc(F)cc1)c1nc2cccnc2n(Cc2ccccc2)c1=O	inactive

Assay result, entry `CC[C@@]1(C(=O)O)C[C@H](C(=O)N(C)CC(=O)O)[C@H](c2ccc(OC)cc2)N1C` — outcome?
inactive

Here is the next molecule: `CCOC(=O)c1ccc(NC(=O)CCS(=O)(=O)c2ccc(C)cc2)cc1`
active

Moving on to the next molecule: `Cc1ccc(CN2C(=O)[C@@H]3C[C@@H](O)CN3C3(CN(Cc4ccc(C(F)(F)F)cc4)C3)C2=O)o1`
inactive

Okay, and O=C(CC1CCCN(c2cnn(CC3CC3)c(=O)c2)C1)N1CCCC1 (configuration not stated) ?
inactive

Entry to check: `COC[C@H]1C[C@@H](NC(=O)c2ccc(C#N)cc2)[C@H](O)[C@@H]1O`
inactive

Okay, and CCOc1cccc(CC(=O)N2CCc3c([nH]c4ccccc34)C2c2ccc(F)cc2)c1OCC (configuration not stated) ?
inactive

Queued: `O=C(c1ccccc1)N1CCNc2cnc(Nc3cccc(C(F)(F)F)c3)nc2C1`
inactive

Now consider CC(O)CNC(=O)c1ccc(-c2ncc3cnc(C4=CCOCC4)cn23)cc1 (configuration not stated) and answer again.
inactive

`C(=C\c1ccccc1)/CN1CCN(c2ncncn2)CC1` , same question.
inactive
